MEASUREMENT TARGET: UniProt:Q12908
Sequence (Q12908 1-348): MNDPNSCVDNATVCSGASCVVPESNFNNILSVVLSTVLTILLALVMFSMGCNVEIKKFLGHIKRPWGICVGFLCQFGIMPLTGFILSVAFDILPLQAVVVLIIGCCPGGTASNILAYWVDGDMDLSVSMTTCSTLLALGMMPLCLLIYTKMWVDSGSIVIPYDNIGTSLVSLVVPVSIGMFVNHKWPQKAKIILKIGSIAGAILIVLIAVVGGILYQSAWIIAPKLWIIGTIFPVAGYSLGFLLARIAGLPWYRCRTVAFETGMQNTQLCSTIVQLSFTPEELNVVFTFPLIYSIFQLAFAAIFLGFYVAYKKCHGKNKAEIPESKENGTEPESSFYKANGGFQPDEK
METHOD NOTES: In vitro assay of temporarily expressed human IBAT transporter using Cos 7 cells (Test Example 8)
CONDITION INFO: Cos 7 cells temporarily expressing human IBAT; [3H] taurocholate 8 μM, 37° C., 60 minutes
pIC50: −log10 of the molar value.
MEASURED METRIC: pIC50

[I] CCCCC1(CCCC)CS(=O)(=O)c2ccc(N(C)C)cc2C(c2cccc(NC(=S)NCCCCC[N+]34CCC(CC3)CC4)c2)N1 (stereo not drawn)
[II] CCCCC1(CCCC)CS(=O)(=O)c2ccc(N(C)C)cc2C(c2cccc(NC(=S)Nc3ccc(C[n+]4ccc(CC)cc4)cc3)c2)N1.[Br-] (stereo not drawn)
Which has the smaller recorded pIC50, I or II ? Refer to your chosen item by its label in the answer.
I
(I: 6.99, II: 7.28)

====

Tested on: Na+ dependent amino acid transporter
METHOD NOTES: In vitro assay on Na+ dependent amino acid transporter using Cos 7 cells (Test Example 10)
Assay type: cell-based
CONDITION INFO: [3H] alanine 8 μM, 37° C., 60 minutes, read-out: IC50 (μM) against alanine transporter
MEASURED METRIC: IC50 (µM)
Field: numeric (µM). Do not append units.

Looking up CCCCC1(CCCC)CS(=O)(=O)c2ccc(N(C)C)cc2C(c2cccc(NC(=S)CCCCC[N+]34CCC(CC3)CC4)c2)N1.[Br-] (stereo not shown) , I see its IC50 listed as 33

====

System: Caco 2 cells
METHOD NOTES: Toxicity with respect to alimentary canal: cytotoxicity to Caco 2, LDH activity (Test Example 12)
Type: cell-based, human
CONDITION INFO: 30 μM; LDH activity after 2 hours, relative to cytolytic agent = 100%
MEASURED METRIC: Toxicity (%) to Caco 2

So, CCCCC1(CCCC)CS(=O)(=O)c2ccc(N(C)C)cc2C(c2cccc(NC(=S)Nc3ccc(CC[N+]45CCC(CC4)CC5)cc3)c2)N1 (stereo not drawn) ? Its Toxicity (%) to Caco 2 was <1%

Measured Toxicity (%) to Caco 2, CCCCC1(CCCC)CS(=O)(=O)c2ccc(N(C)C)cc2C(c2cccc(NC(=S)Nc3ccc(C[N+](C)(C)CCCC)cc3)c2)N1.[Br-] (stereo not drawn) : <1%

The value of Toxicity (%) to Caco 2 measured for the compound CCCCC1(CCCC)CS(=O)(=O)c2ccc(N(C)C)cc2C(c2cccc(NC(=S)Nc3ccc(C[N+]45CCN(CC4)CC5)cc3)c2)N1.[Br-] (stereo not drawn) turned out to be <1%
